assay.details: GFP drop in mixed WT/humanized-ribosome E. coli culture – GFP/RFP fluorescence, OD600, single point, bacterial rRNA inhibitor project, primary screen (AID 720706)
measurement.conditions: E. coli WT GFP vs humanized-ribosome RFP mutants, 24 h; measured here: RFP humanized mutant strains, DMSO median 0, no signal -100, concentration not given here
The whole screen tested about 350,000 compounds, of which about 5,500 (1.6%) were called active. The sample as a whole holds a higher share of actives than the screen did.

| compound | RFP signal change / % |
| --- | --- |
| COc1ccccc1C(=O)NCCC(=O)NCC(c1ccco1)N1CCCCC1 (stereo not given) | 2.81 |
| O=S(=O)(Cc1ccccc1)N1CCCCN2[C@@H](CO)[C@H](c3ccc(-c4ccccc4)cc3)[C@@H]2C1 | 18.6 |
| C[C@@H]1CN([C@@H](C)CO)S(=O)(=O)c2ccc(C#Cc3cccnc3)cc2O[C@@H]1CN(C)C | 0.337 |
| COc1cccc(OC)c1C(=O)NC(=S)NCc1ccco1 | -0.715 |
| N#CCC(=O)N/N=C/c1cn(Cc2ccc3ccccc3c2)c2ccccc12 | 0.715 |
